Source: patent EP0975634B1

System: Magnaporthe grisea f. sp. Oryzae
assay text: microbe, parasite or virus in culture
Assay type: cell-based
condition set: Pyricularia oryzae, read-out: MIC (Minimum Inhibitory Concentration) PYRIOR
observable: MIC
Answer with the figure and its unit, nothing else.

IN: Looking for the measured MIC of Fc1cc(F)c(-c2c(Cl)nc3ncnn3c2NCC(F)(F)F)c(F)c1 [Example 12] , can you help?
OUT: 200 µg/mL

IN: Queued: Fc1cc(F)c(-c2c(Cl)nc3ncnn3c2NC(c2ccccc2)C(F)(F)F)c(F)c1 (stereo not drawn) [Example 52]
OUT: 1560 µg/mL

IN: Queued: CC(C)CCN(C)c1c(-c2c(F)cc(F)cc2F)c(Cl)nc2ncnn12 [Example 54]
OUT: 40 µg/mL

IN: Queued: CC(C)CN(CC(F)(F)F)c1c(-c2c(F)cc(F)cc2F)c(Cl)nc2ncnn12 [Example 26]
OUT: 40 µg/mL

IN: Queued: CC1CCN(c2c(-c3c(F)cc(F)cc3F)c(Cl)nc3ncnn23)CC1 [Example 2]
OUT: 40 µg/mL

Next:
IN: Looking for the measured MIC of OC1CCCN(c2c(-c3c(F)cc(F)cc3F)c(Cl)nc3ncnn23)C1 (stereo not drawn) [Example 41] , can you help?
OUT: 12500 µg/mL
